Values were extracted from patent US6380146B1.

Tested on: phenol oxidizing enzyme from Acremonium murorum
condition.details: ΔE tomato extract/ΔE P10, detergent formulation
Entries and their Ratio Bleach on Stain Monitor/Dye Damage, Tomato Extract (Enhancer Index)
experimental.readout: Ratio Bleach on Stain Monitor/Dye Damage, Tomato Extract (Enhancer Index)

[
  {
    "molecule": "O=C(O)CCN1c2ccccc2Sc2ccccc21 [PTP, Phenothiazine-10-propionate]",
    "value.measured": 10.35
  },
  {
    "molecule": "CCn1c(=NN=c2sc3cc(S(=O)(=O)O)ccc3n2CC)sc2cc(S(=O)(=O)O)ccc21",
    "value.measured": 5.76
  },
  {
    "molecule": "Cc1ccc(S(=O)(=O)Nc2cc(Br)c(O)c(Br)c2Br)cc1",
    "value.measured": 14.82
  },
  {
    "molecule": "O=S(=O)(Nc1cc(Br)c(O)c(Br)c1Br)c1ccccc1",
    "value.measured": 15.18
  }
]

* * *

Entries and their Ratio Bleach on Stain Monitor/Dye Damage, Tomato Extract (Enhancer Index)
System: phenol oxidizing enzyme from Acremonium murorum
condition.details: ΔE tomato extract/ΔE P10, 50 mM Tris buffer solution
experimental.readout: Ratio Bleach on Stain Monitor/Dye Damage, Tomato Extract (Enhancer Index)

[
  {
    "molecule": "O=S(=O)(Nc1cc(Br)c(O)c(Br)c1Br)c1ccccc1",
    "value.measured": 19.97
  },
  {
    "molecule": "Cc1ccc(S(=O)(=O)Nc2cc(Br)c(O)c(Br)c2Br)cc1",
    "value.measured": 20.40
  },
  {
    "molecule": "CCn1c(=NN=c2sc3cc(S(=O)(=O)O)ccc3n2CC)sc2cc(S(=O)(=O)O)ccc21",
    "value.measured": 2.93
  },
  {
    "molecule": "O=C(O)CCN1c2ccccc2Sc2ccccc21 [PTP, Phenothiazine-10-propionate]",
    "value.measured": 3.59
  }
]

* * *

Entries and their Color difference (ΔE) original P10 swatch vs after 5th wash
System: phenol oxidizing enzyme from Acremonium murorum
experiment.notes: Dye damage of the phenol oxidizing enzyme/enhancer system on colored swatch P10, consecutive washes in detergent formulation
condition.details: 5th wash, enzyme 20 mg/l, enhancer 250 μM, 40° C., 1 hour
experimental.readout: Color difference (ΔE) original P10 swatch vs after 5th wash

[
  {
    "compound": "O=S(=O)(Nc1cc(Br)c(O)c(Br)c1Br)c1ccccc1",
    "tested.target": "phenol oxidizing enzyme from Acremonium murorum",
    "value.measured": 1.77
  },
  {
    "compound": "CCn1c(=NN=c2sc3cc(S(=O)(=O)O)ccc3n2CC)sc2cc(S(=O)(=O)O)ccc21",
    "tested.target": "phenol oxidizing enzyme from Acremonium murorum",
    "value.measured": 6.52
  },
  {
    "compound": "Cc1ccc(S(=O)(=O)Nc2cc(Br)c(O)c(Br)c2Br)cc1",
    "tested.target": "phenol oxidizing enzyme from Acremonium murorum",
    "value.measured": 1.86
  },
  {
    "compound": "O=C(O)CCN1c2ccccc2Sc2ccccc21 [PTP, Phenothiazine-10-propionate]",
    "tested.target": "phenol oxidizing enzyme from Acremonium murorum",
    "value.measured": 3.25
  }
]

* * *

Entries and their Color difference (ΔE) dyed swatch OO2 after 3 washes
Test system: phenol oxidizing enzyme from Acremonium murorum
experiment.notes: Dye damage of the phenol oxidizing enzyme/enhancer system on dyed swatches, 3 washes in Tris buffer
condition.details: Dyed Monitor OO2, 3 washes, Tris buffer pH 8, enzyme 20 mg/l, enhancer 250 μM
experimental.readout: Color difference (ΔE) dyed swatch OO2 after 3 washes

[
  {
    "compound": "O=C(O)CCN1c2ccccc2Sc2ccccc21 [PTP, Phenothiazine-10-propionate]",
    "value.measured": 6.34
  },
  {
    "compound": "O=S(=O)(Nc1cc(Br)c(O)c(Br)c1Br)c1ccccc1",
    "value.measured": 0.47
  },
  {
    "compound": "Cc1ccc(S(=O)(=O)Nc2cc(Br)c(O)c(Br)c2Br)cc1",
    "value.measured": 0.41
  },
  {
    "compound": "CCn1c(=NN=c2sc3cc(S(=O)(=O)O)ccc3n2CC)sc2cc(S(=O)(=O)O)ccc21",
    "value.measured": 3.47
  }
]
